Numbers sourced from the supplement of paper PMC10567573.

B1: C1orf137 (parent)
chain: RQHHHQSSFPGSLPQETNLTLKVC

Variants of: B1
Experiment: protein stability index of a GFP-peptide fusion (GPS, HEK-293T) (PSI 1-6); higher = more stable;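 also: lentivirally expressed fusions sorted by FACS into six bins by GFP to DsRed ratio, PSI derived from sequencing read proportions per bin multiplied by bin number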
Conditions: c terminus: a fixed tail appended
In this section we review reported protein stability index values for a set of variants.
// print number alone

Please review the following examples before continuing.
Req: Quick one: protein stability index of N18I ?
Resp: 2

Req: Quick one: protein stability index of T17N ?
Resp: 3.15

Req: Quick one: protein stability index of Q2F ?
Resp: 3.96

Req: Quick one: protein stability index of H3C ?
Resp: 2.54

Then this variant:
Req: Quick one: protein stability index of Q15D ?
Resp: 3.26
